molecular target: His-GST-TVMV-hRIPK1(1-324) (Homo sapiens (Human)); experiment: RIPK1 HTRF Binding Assay; settings: HTRF binding, 1 h at rt; read-out: RIPK1 (IC50)
Sequence (Q13546 1-324): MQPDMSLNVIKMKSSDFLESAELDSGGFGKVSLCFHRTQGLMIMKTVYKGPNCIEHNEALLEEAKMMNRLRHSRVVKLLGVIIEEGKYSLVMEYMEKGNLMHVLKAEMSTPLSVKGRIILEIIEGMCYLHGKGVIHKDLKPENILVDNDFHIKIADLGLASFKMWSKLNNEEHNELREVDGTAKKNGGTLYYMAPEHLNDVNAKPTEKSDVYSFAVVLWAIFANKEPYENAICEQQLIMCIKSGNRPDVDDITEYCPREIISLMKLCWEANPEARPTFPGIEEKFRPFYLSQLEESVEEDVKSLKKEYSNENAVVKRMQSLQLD
pIC50: −log10 of the molar value. Structures can show the parent of a compound that is named as a salt.
result.type: pIC50

[[record]]
molecule = "COc1cc(C)c(-c2ccc3nc(NC(=O)CO)cn3n2)cc1C(=O)NCc1cc(OC(F)(F)F)ccc1F"
recorded_value = 8.22

[[record]]
molecule = "[2H]C([2H])([2H])Oc1nc(C)c(-c2ccc3nc(NC(C)=O)cn3n2)cc1C(=O)NC(C)c1ccccc1OC(F)(F)F (single isomer, unassigned) [Example 13-2]"
recorded_value = 8.22

[[record]]
molecule = "CCC(=O)Nc1cn2nc(-c3cnc(OC)c(C(=O)NCc4cc(OC(F)(F)F)ccc4F)c3)ccc2n1"
recorded_value = 7.96

[[record]]
molecule = "COc1ncc(-c2ccc3nc(NC(C)=O)cn3n2)cc1C(=O)NCc1ccccc1COC(C)C [Example 114, TFA]"
recorded_value = 8.10

[[record]]
molecule = "CC(=O)Nc1cn2nc(-c3cc(C(=O)NCc4cc(C(F)(F)F)ccc4F)c(C)nc3C)ccc2n1"
recorded_value = 7.85

[[record]]
molecule = "CC(=O)Nc1cn2nc(-c3cnc(C)c(C(=O)NCc4ccccc4OC4CCOC4)c3)ccc2n1 (stereo not shown)"
recorded_value = 6.80

[[record]]
molecule = "CC(=O)Nc1cn2nc(-c3cc(C(=O)NCc4cc(F)cc(F)c4OCC4CCCC4)c(C)nc3C)ccc2n1"
recorded_value = 8.30

